Task for the reader: assign each of the following compounds its reported α-Amylase Inhibition at 0.1 mM.
System: α-amylase
Assay: α-amylase inhibitory activity assay (starch, DNS reagent)
Format: biochemical
Conditions: mean ± SD (n = 3)
Answers are plain numbers, in bc %.

compound	test-system	assay-metric	reported
CC/C=C/CCO[C@@H]1O[C@H](COC(=O)C=Cc2ccc(O)cc2)[C@@H](O)[C@H](O[C@@H]2O[C@@H](C)[C@H](O)[C@@H](O)[C@H]2O)[C@H]1O	α-amylase	α-Amylase Inhibition at 0.1 mM	27.9

Please report α-Amylase Inhibition at 0.1 mM for every entry that follows.
1. COC(=O)C=Cc1ccc(O)cc1
2. C[C@@H]1O[C@@H](O[C@@H]2[C@@H](O)[C@@H](O)[C@H](O[C@H]3[C@H](O)[C@@H](COC(=O)C=Cc4ccc(O)cc4)OC(O)[C@@H]3O)O[C@H]2C)[C@H](O)[C@H](O)[C@H]1O (stereo partly shown)
3. C=C(C)CO[C@@H]1O[C@H](COC(=O)C=Cc2ccc(O)cc2)[C@@H](O)[C@H](O[C@@H]2O[C@@H](C)[C@H](O)[C@@H](O)[C@H]2O)[C@H]1O
4. CC1OC(OC2C(O)C(O)OC(CO)C2OC(=O)C=Cc2ccc(O)cc2)C(O)C(O)C1O (stereo not shown)
5. C[C@@H]1O[C@@H](O[C@H]2[C@H](O)[C@@H](COC(=O)C=Cc3ccc(O)cc3)OC(O)[C@@H]2O)[C@H](O)[C@H](O)[C@H]1O (stereo partly shown)
6. COc1cc([C@H]2c3cc(O[C@@H]4O[C@H](CO)[C@@H](O)[C@H](O)[C@H]4O)c(OC)cc3C[C@@](O)(CO)[C@@H]2CO)ccc1O [Compound 8, (+)-cycloolivil 6-O-β-D-glucopyranoside]

[29.5, 26.5, 24.0, 25.6, 29.8, 28.5]

###

Target: UniProt:P12276
Test: FAS inhibitory activity assay (NADPH absorbance at 340 nm)
Details: read-out: FAS IC50; mean ± SD (n = 3); NA = no activity; FAS isolated from chicken liver
assay-metric: pIC50
Give bare numbers, as −log10 of the molar value.

Please look up its pIC50: `C=C(C)CO[C@@H]1O[C@H](COC(=O)C=Cc2ccc(O)cc2)[C@@H](O)[C@H](O[C@@H]2O[C@@H](C)[C@H](O)[C@@H](O)[C@H]2O)[C@H]1O`
5.39

###

Task for the reader: assign each of the following compounds its reported pIC50.
Target: fatty acid synthase (FAS) (Gallus gallus)
Sequence (P12276 2-2512 limits assumed): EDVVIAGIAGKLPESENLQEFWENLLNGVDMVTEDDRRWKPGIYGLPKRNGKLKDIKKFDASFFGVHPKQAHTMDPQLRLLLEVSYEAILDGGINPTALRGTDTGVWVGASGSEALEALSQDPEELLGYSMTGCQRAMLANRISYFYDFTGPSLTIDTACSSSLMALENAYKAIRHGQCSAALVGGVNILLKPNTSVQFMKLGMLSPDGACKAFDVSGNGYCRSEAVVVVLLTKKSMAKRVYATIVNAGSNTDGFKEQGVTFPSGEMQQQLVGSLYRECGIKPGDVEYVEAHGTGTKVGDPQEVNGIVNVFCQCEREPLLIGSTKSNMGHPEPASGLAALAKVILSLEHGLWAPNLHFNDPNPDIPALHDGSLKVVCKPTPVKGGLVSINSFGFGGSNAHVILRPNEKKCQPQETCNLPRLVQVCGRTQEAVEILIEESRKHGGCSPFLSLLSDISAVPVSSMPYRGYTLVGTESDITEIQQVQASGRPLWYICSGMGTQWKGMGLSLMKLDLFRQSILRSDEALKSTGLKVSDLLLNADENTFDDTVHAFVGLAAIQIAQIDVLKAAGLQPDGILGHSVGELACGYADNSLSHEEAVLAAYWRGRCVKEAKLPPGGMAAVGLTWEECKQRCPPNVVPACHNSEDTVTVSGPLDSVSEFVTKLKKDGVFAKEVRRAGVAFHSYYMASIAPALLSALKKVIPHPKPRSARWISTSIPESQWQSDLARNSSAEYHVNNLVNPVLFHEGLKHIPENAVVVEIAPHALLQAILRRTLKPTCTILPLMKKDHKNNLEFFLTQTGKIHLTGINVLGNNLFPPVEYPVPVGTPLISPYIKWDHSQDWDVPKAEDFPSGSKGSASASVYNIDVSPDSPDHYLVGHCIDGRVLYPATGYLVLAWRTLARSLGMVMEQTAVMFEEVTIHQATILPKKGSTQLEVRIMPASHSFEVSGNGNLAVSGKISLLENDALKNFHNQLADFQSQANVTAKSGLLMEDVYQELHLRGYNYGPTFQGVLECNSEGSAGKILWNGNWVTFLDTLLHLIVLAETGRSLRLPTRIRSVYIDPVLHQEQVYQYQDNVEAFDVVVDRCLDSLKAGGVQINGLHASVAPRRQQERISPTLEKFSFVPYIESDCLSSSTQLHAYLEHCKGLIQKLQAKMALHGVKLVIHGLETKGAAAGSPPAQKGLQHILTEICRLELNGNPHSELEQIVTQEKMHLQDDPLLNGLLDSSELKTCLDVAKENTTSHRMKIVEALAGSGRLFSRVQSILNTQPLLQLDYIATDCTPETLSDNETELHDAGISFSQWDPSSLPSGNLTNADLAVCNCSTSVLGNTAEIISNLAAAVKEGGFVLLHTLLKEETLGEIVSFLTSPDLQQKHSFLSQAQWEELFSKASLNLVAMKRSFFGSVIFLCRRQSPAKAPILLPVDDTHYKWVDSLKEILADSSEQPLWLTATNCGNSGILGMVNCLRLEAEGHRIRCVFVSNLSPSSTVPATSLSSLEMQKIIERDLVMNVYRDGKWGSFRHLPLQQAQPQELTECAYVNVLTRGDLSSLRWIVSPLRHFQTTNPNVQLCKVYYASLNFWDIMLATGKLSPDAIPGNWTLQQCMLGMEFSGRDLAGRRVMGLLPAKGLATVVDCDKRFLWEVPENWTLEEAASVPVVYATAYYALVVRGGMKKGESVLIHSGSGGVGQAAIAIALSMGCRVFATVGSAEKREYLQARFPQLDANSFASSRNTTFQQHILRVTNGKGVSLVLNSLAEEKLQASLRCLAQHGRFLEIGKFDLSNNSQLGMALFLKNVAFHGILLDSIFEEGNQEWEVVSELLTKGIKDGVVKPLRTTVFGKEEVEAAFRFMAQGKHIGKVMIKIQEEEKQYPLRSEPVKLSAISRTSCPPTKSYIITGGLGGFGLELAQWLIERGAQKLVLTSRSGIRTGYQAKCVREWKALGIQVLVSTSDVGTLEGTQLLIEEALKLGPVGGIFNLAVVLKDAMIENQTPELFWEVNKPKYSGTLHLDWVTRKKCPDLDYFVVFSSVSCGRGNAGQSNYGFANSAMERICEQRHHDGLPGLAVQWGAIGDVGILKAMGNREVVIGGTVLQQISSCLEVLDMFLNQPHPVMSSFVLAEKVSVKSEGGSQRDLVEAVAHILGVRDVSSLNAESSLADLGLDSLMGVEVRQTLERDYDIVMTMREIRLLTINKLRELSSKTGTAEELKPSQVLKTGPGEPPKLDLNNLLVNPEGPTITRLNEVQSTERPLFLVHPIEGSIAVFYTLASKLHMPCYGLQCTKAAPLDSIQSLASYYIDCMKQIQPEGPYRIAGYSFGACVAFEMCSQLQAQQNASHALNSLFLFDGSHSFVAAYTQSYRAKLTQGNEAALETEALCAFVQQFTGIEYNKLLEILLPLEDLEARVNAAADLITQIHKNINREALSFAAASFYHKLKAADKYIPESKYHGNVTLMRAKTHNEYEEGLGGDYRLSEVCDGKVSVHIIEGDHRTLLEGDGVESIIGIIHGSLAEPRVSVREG
Test: FAS inhibitory activity assay (NADPH absorbance at 340 nm)
Give bare numbers, as −log10 of the molar value.

# count of solved cases: 5
compound	pIC50
O=c1c(O[C@@H]2O[C@H](CO)[C@@H](O)[C@H](O)[C@H]2O)c(-c2ccc(O)cc2)oc2cc(O[C@@H]3O[C@H](CO)[C@@H](O)[C@H](O)[C@H]3O)cc(O)c12 [Compound 7, kaempferol 3,7-diglucoside]	5.09
COC(=O)C=Cc1ccc(O)cc1 [Compound 9]	4.81
CC1OC(OC2C(O)C(O)OC(CO)C2OC(=O)C=Cc2ccc(O)cc2)C(O)C(O)C1O (stereo not drawn) [Compound 4]	4.98
C[C@@H]1O[C@@H](O[C@H]2[C@H](O)[C@@H](COC(=O)C=Cc3ccc(O)cc3)OC(O)[C@@H]2O)[C@H](O)[C@H](O)[C@H]1O (stereo partly drawn) [Compound 3]	5.20
COc1cc([C@H]2c3cc(O[C@@H]4O[C@H](CO)[C@@H](O)[C@H](O)[C@H]4O)c(OC)cc3C[C@@](O)(CO)[C@@H]2CO)ccc1O [Compound 8, (+)-cycloolivil 6-O-β-D-glucopyranoside]	5.10

Now, please, on to the next compound.
Please look up its pIC50: C[C@@H]1O[C@@H](O[C@@H]2[C@@H](O)[C@@H](O)[C@H](O[C@H]3[C@H](O)[C@@H](COC(=O)C=Cc4ccc(O)cc4)OC(O)[C@@H]3O)O[C@H]2C)[C@H](O)[C@H](O)[C@H]1O (stereo partly drawn) [Compound 5]
5.01

###

Task for the reader: assign each of the following molecules its reported α-Amylase Inhibition at 0.1 mM.
System: α-amylase
Assay: α-amylase inhibitory activity assay (starch, DNS reagent)
Format: biochemical
Conditions: mean ± SD (n = 3)

# count of solved cases: 2
molecule	test-system	α-Amylase Inhibition at 0.1 mM
C[C@@H]1O[C@@H](O[C@H]2[C@H](OC(=O)/C=C/c3ccc(O)c(O)c3)[C@@H](CO)OC(O)[C@@H]2O)[C@H](O)[C@H](O)[C@H]1O (stereo partly drawn) [Compound 6]	α-amylase	23.0 ± 0.7 c %
OCCc1ccc(O)cc1 [Compound 10, 4-hydroxyphenylethanol]	α-amylase	16.2 ± 5.0 d %

Now, please, on to the next molecule.
Please look up its α-Amylase Inhibition at 0.1 mM: O=c1c(O[C@@H]2O[C@H](CO)[C@@H](O)[C@H](O)[C@H]2O)c(-c2ccc(O)cc2)oc2cc(O[C@@H]3O[C@H](CO)[C@@H](O)[C@H](O)[C@H]3O)cc(O)c12 [Compound 7, kaempferol 3,7-diglucoside]
31.8 ± 0.5 b %
